SYSTEM TESTED: recombinant human Mcl-1 (residues 171-327) / Bim interaction (Homo sapiens (Human), UniProt Q07820)
Sequence (Q07820 171-327): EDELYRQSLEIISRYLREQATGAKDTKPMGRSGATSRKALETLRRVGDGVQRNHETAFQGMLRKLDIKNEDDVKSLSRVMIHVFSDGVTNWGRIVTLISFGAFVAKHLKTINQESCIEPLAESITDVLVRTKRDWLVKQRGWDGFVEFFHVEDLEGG
TEST: biochemical
Assay type: binding
CONDITION SET: TR-FRET, Mcl-1(171-327) / biotin-Bim (51-76); read-out: Mcl-1 HTRF IC50
pIC50: −log10 of the molar value.
PARAMETER MEASURED: pIC50

- C[C@@H]1[C@@H](C)CCC[C@](O)(CCN(C)C)[C@@H]2CC[C@H]2CN2C[C@@]3(CCCc4cc(Cl)ccc43)COc3ccc(cc32)C(=O)NS1(=O)=O: 8.67
- C[C@@H]1[C@@H](C)C/C=C/[C@@](O)(CS(C)(=O)=O)[C@@H]2CC[C@H]2CN2C[C@@]3(CCCc4cc(Cl)ccc43)COc3ccc(cc32)C(=O)NS1(=O)=O [Example 100073]: 9.46
- C[C@H](C(=O)O)[C@@]1(O)/C=C/C[C@H](C)[C@@H](C)S(=O)(=O)NC(=O)c2ccc3c(c2)N(C[C@@H]2CC[C@H]21)C[C@@]1(CCCc2cc(Cl)ccc21)CO3 (single isomer, unassigned) [Example 100123]: 10.04
- CCN(CC)C(=O)C[C@@]1(O)/C=C/C[C@H](C)[C@@H](C)S(=O)(=O)NC(=O)c2ccc3c(c2)N(C[C@@H]2CC[C@H]21)C[C@@]1(CCCc2cc(Cl)ccc21)CO3 (single isomer, unassigned): 9.13
- CC[C@]1(O)/C=C/C[C@H](C)[C@@H](C)S(=O)(=O)NC(=O)c2ccc3c(c2)N(C[C@@H]2CC[C@H]21)C[C@@]1(CCCc2cc(Cl)ccc21)CO3: 9.85
